- target: Prostaglandin E2 receptor EP2 subtype (Homo sapiens)
- experiment summary: EP2 receptor modulators, dose response, cell-based, human EP2, PGE2 EC50 shift (AID 1421)
- setup conditions: EP2-expressing cells, PGE2 EC50 shift by compound; measured here: PGE2 EC50 at 6.7 uM compound
t means recorded PGE2 EC50 with compound is 1 nM or above; f means it is below 1 nM.

[[record]]
compound = "Cc1noc(C)c1COC(=O)C(c1ccccc1)c1ccccc1"
class_label = "t"

[[record]]
compound = "CCc1cc2cc(C)cc(C)c2nc1SCC(=O)N1CCCC1"
class_label = "t"

[[record]]
compound = "CCOc1cc(/C=N/NC(N)=O)ccc1OC(=O)c1ccc(C)cc1"
class_label = "t"

[[record]]
compound = "O=C(NCc1ccco1)c1ccc(=O)[nH]n1"
class_label = "t"

[[record]]
compound = "COc1cc2nc(N3CCN(C(=O)C4CCCO4)CC3)nc(N)c2cc1OC (stereo unspecified)"
class_label = "f"

[[record]]
compound = "Cc1ccccc1S(=O)(=O)c1c(C)cc(C)n(C(C)C)c1=O"
class_label = "f"

[[record]]
compound = "O=C(CSc1nc2ccccc2o1)Nc1ccccc1N1CCCCCC1"
class_label = "f"

[[record]]
compound = "Cc1onc(-c2ccccc2Cl)c1-c1nc(-c2ccncc2)no1"
class_label = "f"

[[record]]
compound = "CC1(c2cc([N+](=O)[O-])cc([N+](=O)[O-])c2)CC(C)(C)N(C(=O)c2ccccc2)c2ccccc21 (stereo unspecified)"
class_label = "t"

[[record]]
compound = "CCOP(=O)(OCC)c1nc(-c2ccccc2)oc1NCc1ccccc1"
class_label = "t"

[[record]]
compound = "O=S(=O)(O)c1ccc2c(N=Nc3c(O)ccc4ccccc34)cccc2c1"
class_label = "t"


###

- target: Prostaglandin E2 receptor EP2 subtype (Homo sapiens) (UniProt P43116)
- Sequence (P43116 whole entry, looked up): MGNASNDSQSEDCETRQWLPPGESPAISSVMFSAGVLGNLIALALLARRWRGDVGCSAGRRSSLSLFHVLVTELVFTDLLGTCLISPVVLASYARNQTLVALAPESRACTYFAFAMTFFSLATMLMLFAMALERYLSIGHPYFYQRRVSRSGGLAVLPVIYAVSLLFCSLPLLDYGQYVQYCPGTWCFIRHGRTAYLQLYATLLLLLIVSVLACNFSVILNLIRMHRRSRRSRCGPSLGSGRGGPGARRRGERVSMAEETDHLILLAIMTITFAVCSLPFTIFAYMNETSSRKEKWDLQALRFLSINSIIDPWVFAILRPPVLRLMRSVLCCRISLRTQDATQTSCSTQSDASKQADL
- experiment summary: EP2 receptor modulators, dose response, cell-based, human EP2, PGE2 EC50 shift (AID 1421)
- setup conditions: EP2-expressing cells, PGE2 EC50 shift by compound; measured here: PGE2 EC50 at 6.7 uM compound
# met = PGE2 EC50 with compound below 1 nM (exclusive); not met = PGE2 EC50 with compound at/above 1 nM

[[record]]
molecule = "C=CCOc1c(Br)cc(/C=N/n2c(CC)n[nH]c2=S)cc1Br"
class_label = "met"

[[record]]
molecule = "CCOc1ccccc1NC1c2ccccc2C(=O)N1c1ccc(C)cn1 (configuration not stated)"
class_label = "met"

[[record]]
molecule = "O=C1CCC(C(=O)OCC(=O)N2N=C3/C(=C/c4ccccc4)CCCC3C2c2ccccc2)N1 (configuration not stated)"
class_label = "not met"

[[record]]
molecule = "CN(Cc1c(C(=O)N2CCc3ccccc3C2)nc2ccc(Cl)cn12)C(C1CC1)C1CC1"
class_label = "met"

[[record]]
molecule = "CC(CC(=O)O)(CC(=O)O)C(=O)O"
class_label = "met"

[[record]]
molecule = "Cc1cc(C)c2cc(C)c(SCC(=O)NCc3ccco3)nc2c1"
class_label = "not met"

[[record]]
molecule = "COc1cc(OC)c2c(OC)c(-c3ccc4c(c3)OCO4)c(=O)oc2c1"
class_label = "not met"

[[record]]
molecule = "COc1ccc2cc3c(N)nn(C(=O)C4CCC(C(C)(C)C)CC4)c3nc2c1 (configuration not stated)"
class_label = "not met"

[[record]]
molecule = "S=c1[nH]nc(-c2ccc(Br)o2)n1Cc1ccccc1"
class_label = "not met"

[[record]]
molecule = "O=C1N2c3ccccc3CCc3cccc(c32)C1(O)C(F)(F)F (configuration not stated)"
class_label = "met"

[[record]]
molecule = "CCOC(=O)C1=C(C)NC(C)=C(C(=O)OC)C1c1cccc(Cl)c1Cl (configuration not stated)"
class_label = "met"

[[record]]
molecule = "Cc1ccc(CN2C(=O)/C(=C\\c3ccc(C(=O)NCc4cccnc4)cc3)Oc3ccccc32)cc1"
class_label = "met"

[[record]]
molecule = "FC(F)(F)c1cc(CO[C@H]2CCCN[C@H]2c2ccccc2)cc(C(F)(F)F)c1"
class_label = "not met"

[[record]]
molecule = "COc1ccc(N(Cc2ccccc2)S(=O)(=O)c2ccc(C)cc2)cc1"
class_label = "not met"

[[record]]
molecule = "C[N+]1(C)CCOC(O)(c2ccc(-c3ccc(C4(O)C[N+](C)(C)CCO4)cc3)cc2)C1 (configuration not stated)"
class_label = "met"

[[record]]
molecule = "CCn1c2ccc(F)cc2c2nc3ccccc3nc21"
class_label = "met"

[[record]]
molecule = "CCCCOc1ccccc1Cn1c(=O)oc2ccc(C)cc21"
class_label = "met"

[[record]]
molecule = "COC(=O)c1c(NC(=O)Cc2cccs2)sc2c1CCC(C)C2 (configuration not stated)"
class_label = "met"

[[record]]
molecule = "CSc1nc(-c2ccc(Cl)cc2)nn1S(=O)(=O)c1ccccc1"
class_label = "not met"

[[record]]
molecule = "Cc1ccc(NCc2n[nH]c(=S)n2Cc2ccccc2)cc1Cl"
class_label = "not met"

[[record]]
molecule = "CCCCCn1c(SCCC(C)C)nc2c1c(=O)[nH]c(=O)n2C"
class_label = "not met"

